B1: SASS6 (parent)
chain: QKELQDVGQSLRIKEQEVCKLQEQ

variants of: B1; test: protein stability index of a GFP-peptide fusion (GPS, HEK-293T) (PSI 1-6); higher = more stable; details: c terminus: a fixed tail appended;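 further: lentivirally expressed fusions sorted by FACS into six bins by GFP to DsRed ratio, PSI derived from sequencing read proportions per bin multiplied by bin number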
Entry flag: Condition met if protein stability index reaches 5; Condition not met if it does not.

Q16W: Condition not met

State whether the measured protein stability index reaches 5, counting equality as reaching it, for `C19A`
Condition not met

State whether the measured protein stability index reaches 5, counting equality as reaching it, for `L4M`
Condition not met
